# Experimental Target: Melanocyte-stimulating hormone receptor (Homo sapiens)
# Sequence (Q01726 whole entry): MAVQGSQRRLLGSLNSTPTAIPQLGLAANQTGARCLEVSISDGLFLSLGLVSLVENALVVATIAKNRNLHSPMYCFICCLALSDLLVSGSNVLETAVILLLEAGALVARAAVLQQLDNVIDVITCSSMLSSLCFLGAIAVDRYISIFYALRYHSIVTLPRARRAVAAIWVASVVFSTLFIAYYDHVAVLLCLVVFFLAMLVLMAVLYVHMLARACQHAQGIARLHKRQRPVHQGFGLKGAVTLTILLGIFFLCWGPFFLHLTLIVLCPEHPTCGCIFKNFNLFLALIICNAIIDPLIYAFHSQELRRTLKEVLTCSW
# Method Notes: In vitro effective concentration towards human Melanocortin 1 receptor (MC1R) in SPA-based cAMP assay in melanoma cells
# Type: cell-based
Grouping by measured EC50 is done with the following cut points: lower bin = under 2 nM, middle bin = from 2 nM up to 200 nM, upper bin = 200 nM and over

Worked examples follow.
Chemical Smiles | Experimental Target | Cat
CCCC(=O)C1(c2ccccc2)CCN(C(=O)[C@@H](Cc2ccc(OC)cc2)NC(=O)[C@H](N)Cc2cncn2C)CC1 | Melanocyte-stimulating hormone receptor (Homo sapiens) | upper bin
CCCC(=O)C1(c2ccccc2)CCN(C(=O)[C@@H](Cc2ccc(OC)cc2)NC(=O)[C@@H](N)Cc2cnc[nH]2)CC1 | Melanocyte-stimulating hormone receptor (Homo sapiens) | upper bin
CCCC(=O)C1(c2ccccc2)CCN(C(=O)[C@@H](Cc2ccc(OC)cc2)NC(=O)[C@H](N)Cc2cnc[nH]2)CC1 | Melanocyte-stimulating hormone receptor (Homo sapiens) | lower bin

// bin(item) where item = `CCCC(=O)C1(c2ccccc2)CCN(C(=O)[C@@H](Cc2ccc(OC)cc2)NC(=O)CCc2cnc[nH]2)CC1`
middle bin
